Origin of the recorded values: paper PMC4450297

tested on: NCI-H2405; assay: Cell panel screen (CellTiter-Glo); type: cell-based, human; settings: NCI-H2405 (Lung), 20 micromolar, 72 hrs
readoutKind: Percent Inhibition (%)
Unit % implied. Number only.

INSERT INTO assay_data (molecule, measureunit, measvalue) VALUES
  ('CC(C)=CCc1c(O)cc2oc3c(c(=O)c2c1O)C(CC=C(C)C)(CC=C(C)C)C(=O)C(O)=C3', '%', 40),
  ('O=C1c2c(O)cc(O)cc2OC(c2ccc(O)c(O)c2)C1O (stereo not shown)', '%', -5),
  ('CC(C)=CCC/C(C)=C/Cc1c(O)c(CC=C(C)C)c2c(c1O)C(=O)C1=C[C@@H]3C[C@H]4C(C)(C)O[C@@](C/C=C(/C)C(=O)O)(C3=O)[C@@]14O2', '%', 99);

Field: next molecule
Data request: // query Percent Inhibition value for entry CC1(C)C=Cc2c(cc(O)c3c(=O)c4ccc(O)c(O)c4oc23)O1
Data returned: 66

---

tested on: CW-2; experiment: Cell panel screen (CellTiter-Glo); type: cell-based, human; details: CW-2 (Colon), 20 micromolar, 72 hrs
readoutKind: Percent Inhibition (%)
Express the result in % but write the number alone.

INSERT INTO assay_data (compound, measvalue) VALUES
  ('CC(C)=CCC[C@@]1(C)C=Cc2c(O)c3c(c(CC=C(C)C)c2O1)O[C@]12C(=C[C@@H]4C[C@H]1C(C)(C)O[C@@]2(C/C=C(/C)C(=O)O)C4=O)C3=O [GB11]', 98),
  ('COc1cc(O)c2c(=O)c3cc4c(c(O)c3oc2c1CC=C(C)C)OC(C)(C)C=C4 [gl-12]', 28),
  ('CC1(C)C=Cc2cc3c(=O)c4c(O)cc(O)cc4oc3c(O)c2O1 [Go-11]', 61);

// switching to the query compound
Data request: Would you mind telling me what Percent Inhibition value was observed for CC(C)=CCc1c2c(c(O)c3c1OC14C(=CC5CC1C(C)(C)OC4(CC=C(C)C(=O)O)C5=O)C3=O)C=CC(C)(C)O2 (stereo not shown) [GB27] ?
Data returned: 99

---

system: HCC1569; test: Cell panel screen (CellTiter-Glo); format: cell-based, human; details: HCC1569 (Breast), 20 micromolar, 72 hrs
Please enter TRUE where Percent Inhibition is greater than or equal to 60%, and FALSE where it is lower.

Known results for molecules:
INSERT INTO results (molecule, group) VALUES
  ('CC(C)=CCc1c(O)cc2oc3c(c(=O)c2c1O)C(CC=C(C)C)(CC=C(C)C)C(=O)C(O)=C3', 'TRUE'),
  ('COc1ccc2c(=O)c3c(O)cc(O)cc3oc2c1OC', 'FALSE'),
  ('CC(C)=CCc1c2c(c(O)c3c1O[C@]14C(=C[C@@H]5C[C@H]1C(C)(C)O[C@@]4(C/C=C(\C)CO)C5=O)C3=O)C=CC(C)(C)O2', 'TRUE'),
  ('CC(C)=CCc1c(O)c(O)cc2oc3cc(O)cc(O)c3c(=O)c12', 'FALSE'),
  ('CCOC1C2C(=O)c3c(O)c4c(c(CC=C(C)C)c3O[C@@]23[C@H]2C[C@@H]1C(=O)[C@]3(C/C=C(/C)C(=O)O)OC2(C)C)OC(C)(CCC=C(C)C)C=C4 (stereo partly shown)', 'TRUE');

Data request: Does Percent Inhibition meet or surpass 60% for C=C(C)C(O)Cc1c(O)cc2oc3cc(O)c(O)c(CC=C(C)C)c3c(=O)c2c1O (stereo not shown) ?
Data returned: FALSE

Data request: Moving on to COc1cc(O)c2c(=O)c3cc4c(c(O)c3oc2c1CC=C(C)C)OC(C)(C)C=C4
Data returned: FALSE

Data request: Consider next the molecule CC1(C)C=Cc2c(cc(O)c3c(=O)c4ccc(O)c(O)c4oc23)O1 in the same way.
Data returned: TRUE

Data request: Lookup O=c1c2cc(O)ccc2oc2cccc(O)c12 [Gof3]
Data returned: FALSE

Data request: Please do the same for COc1cc(O)c2c(=O)c3ccc(O)c(O)c3oc2c1CC=C(C)C as well.
Data returned: TRUE
